Test system: RXF 393
EXPERIMENTAL_PROTOCOL: NCI tumour cell line growth inhibition, 48 h
Activity calls are given as the source filed them. No stated cut-off is given here; in the data, active = GI50 up to about 1.1 µM and inactive = higher.
MEASURED_QUANTITY: GI50

- COMPOUND: "COc1cc2c(cc1Cl)[n+]([O-])c(C#N)c(N1CCN(c3ccc([N+](=O)[O-])cc3)CC1)[n+]2[O-]"
  RESULT: "27 µM (inactive)"
- COMPOUND: "COc1ccc2c(c1)c1ccc3c(c1n2C)C(=O)C=CC3=O"
  RESULT: "5.35 µM (inactive)"
- COMPOUND: "CCOC(=O)NNC(=O)NC12CC3CC(CC(C3)C1)C2"
  RESULT: "> 100 µM (inactive)"
- COMPOUND: "Cc1nc(NC(=S)NC(=O)c2ccc(Cl)c(Cl)c2)sc1C(=O)/C=C/c1ccccc1[N+](=O)[O-]"
  RESULT: "19.4 µM (inactive)"
- COMPOUND: "CCCCCCCCCCCCCCCCP(=O)(OC)OC"
  RESULT: "19 µM (inactive)"
- COMPOUND: "CC(=O)O[C@H]1CC[C@@]2(C)C(=CC[C@@H]3[C@@H]2CC[C@]2(C)c4nc(N)c(C#N)cc4C[C@@H]32)C1"
  RESULT: "10.7 µM (inactive)"
- COMPOUND: "Oc1ccc2ccccc2c1/N=N\\c1cccc2ccccc12"
  RESULT: "> 100 µM (inactive)"
- COMPOUND: "O=C(O)C1CCCCN1C(=O)Cc1c[nH]c2ccccc12 (stereo not given)"
  RESULT: "> 100 µM (inactive)"
- COMPOUND: "COC(=O)c1cc2c(cc1C(=O)OC)[C@@]1(C)CCCC(C)(C)C1CC2 (stereo not given in full)"
  RESULT: "10.1 µM (inactive)"
- COMPOUND: "CCOC(=O)CCC(C(=O)OCC)n1nc2ccc(Nc3c(C)[n+]([O-])c4cc(Cl)ccc4[n+]3[O-])cc2n1 (stereo not given)"
  RESULT: "30.8 µM (inactive)"
